Entry source: patent US12091425B2

Listed compounds paired with reported IC50
Molecular target: Mcl-1/Bim interaction, recombinant human Mcl-1 (171-327) (Homo sapiens, UniProt Q07820)
Construct: made in house
Sequence (Q07820 171-327): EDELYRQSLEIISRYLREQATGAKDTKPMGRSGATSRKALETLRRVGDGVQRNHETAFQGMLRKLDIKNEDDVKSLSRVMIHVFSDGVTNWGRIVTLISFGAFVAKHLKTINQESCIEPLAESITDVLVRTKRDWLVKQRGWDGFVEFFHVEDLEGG
Assay: Cell free Mcl-1: Bim Affinity Assay (Mcl-1 HTRF)
Type: binding
Conditions: TR-FRET, 0.1 nM Mcl-1 (171-327), 0.05 nM biotin-Bim (51-76)
Procedure: Cell free Mcl-1: Bim Affinity Assay (Mcl-1 HTRF) The inhibition of the Mcl-1/Bim interaction was measured using a time-resolved fluorescence resonance energy transfer (TR-FRET) assay. […] A biotinylated peptide derived from human Bim (residues 51-76) was purchased from CPC Scientific (San Jose, CA). […] The reaction plates were further incubated overnight and then were read on an Envision® multimode reader (PerkinElmer). […]
Numeric only. Scale: nM

1) CC[C@@H]1CC/C=C/[C@H](OCCS(=O)(=O)N(C)C)[C@@H]2CC[C@H]2CN2C[C@@]3(CCCc4cc(Cl)ccc43)COc3ccc(cc32)C(=O)NS1(=O)=O :: 0.851
2) CC[C@@H](O[C@H]1/C=C/C[C@H](C)[C@@H](C)S(=O)(=O)NC(=O)c2ccc3c(c2)N(C[C@@H]2CC[C@H]21)C[C@@]1(CCCc2cc(Cl)ccc21)CO3)C(=O)N(C)C (single isomer, unassigned) :: 0.512
3) C[C@@H]1[C@@H](C)C/C=C/[C@H](OCC(=O)N2CCN(C)CC2)[C@@H]2CC[C@H]2CN2C[C@@]3(CCCc4cc(Cl)ccc43)COc3ccc(cc32)C(=O)NS1(=O)=O :: 0.0986
4) CC[C@@H]1CC/C=C/[C@H](OCC(=O)NCCOC)[C@@H]2CC[C@H]2CN2C[C@@]3(CCCc4cc(Cl)ccc43)COc3ccc(cc32)C(=O)NS1(=O)=O :: 0.573
5) CO[C@@H]1C[C@H]2C/C=C/[C@H](OC)[C@@H]3CC[C@H]3CN3C[C@@]4(CCCc5cc(Cl)ccc54)COc4ccc(cc43)C(=O)NS(=O)(=O)[C@@H]2C1 (single isomer, unassigned) :: 0.705

*Q* Give the measured IC50 of O=C1NS(=O)(=O)[C@@H]2CCC[C@@H]2C/C=C/[C@H](O)[C@@H]2CC[C@H]2CN2C[C@@]3(CCCc4cc(Cl)ccc43)COc3ccc1cc32 (single isomer, unassigned) .
*A* 2.02

*Q* Give the measured IC50 of O=C1NS(=O)(=O)[C@H](CC2CCOCC2)CC/C=C/[C@H](O)[C@@H]2CC[C@H]2CN2C[C@@]3(CCCc4cc(Cl)ccc43)COc3ccc1cc32 (single isomer, unassigned) [Example 186] .
*A* 7.91

*Q* Give the measured IC50 of C[C@@H]1[C@@H](C)S(=O)(=O)NC(=O)c2ccc3c(c2)N(C[C@@H]2CC[C@H]2[C@@H](OCCN2CCOCC2)/C=C/[C@@H]1C)C[C@@]1(CCCc2cc(Cl)ccc21)CO3 .
*A* 0.264

*Q* Give the measured IC50 of CC[C@@H](O[C@H]1/C=C/CC[C@@H](C)S(=O)(=O)NC(=O)c2ccc3c(c2)N(C[C@@H]2CC[C@H]21)C[C@@]1(CCCc2cc(Cl)ccc21)CO3)C(=O)N(C)C (single isomer, unassigned) .
*A* 0.686

====

biological target: Mcl-1/Bim interaction, recombinant human Mcl-1 (171-327) (Homo sapiens, UniProt Q07820); construct: made in house; test: Cell free Mcl-1: Bim Affinity Assay (Mcl-1 HTRF); assay type: binding; conditions: TR-FRET, 0.1 nM Mcl-1 (171-327), 0.05 nM biotin-Bim (51-76)
pIC50: −log10 of the molar value.
Kind request: treat 9 as inclusive, so pIC50 at 9 or higher is condition met, anything lower is condition not met.

1. CC1CC(C)CS(=O)(=O)NC(=O)c2ccc3c(c2)N(CC2CCC2C(O)C1)CC1(CCCc2cc(Cl)ccc21)CO3 (single isomer, unassigned) [Example 272] :: condition met

Next item in the queue.
*Q* Reported pIC50 reaches at least 9 for O=C1NS(=O)(=O)N2CCC[C@@H]2C/C=C/[C@H](O)[C@@H]2CC[C@H]2CN2C[C@@]3(CCCc4cc(Cl)ccc43)COc3ccc1cc32 ?
*A* condition not met
